- Test Target: human UDG (Homo sapiens, UniProt P13051)
- Sequence (P13051 1-304 isoform P13051-2): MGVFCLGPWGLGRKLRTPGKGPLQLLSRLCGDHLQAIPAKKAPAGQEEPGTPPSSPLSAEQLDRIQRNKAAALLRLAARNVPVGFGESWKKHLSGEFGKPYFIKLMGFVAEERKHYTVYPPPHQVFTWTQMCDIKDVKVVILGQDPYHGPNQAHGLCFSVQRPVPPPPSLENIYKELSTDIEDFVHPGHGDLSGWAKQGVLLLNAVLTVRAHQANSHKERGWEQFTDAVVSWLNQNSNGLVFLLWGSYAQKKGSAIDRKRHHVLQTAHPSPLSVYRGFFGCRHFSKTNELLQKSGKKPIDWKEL
- Protocol Notes: Gel-based DNA cleavage assay with a single U:A basepair
- Format: biochemical
- Parameters: 6xHis; purchased XTAL Biostructures; host or cells: Sf9 insect cells
- Run Parameters: estimated; read-out: IC50, DNA cutting
- Experimental: 20% polyacrylamide nucleic acid urea gel electrophoresis was used to resolve the DNA bands at room temperature, 200 v for 50 min. Analysis and quantification of DNA cleavage were done as follows. A background subtraction step was included using the 23mer from the DNA only lane. […] Following pre-incubation occurred for 20 min at 37° C., 2 μL of U:A DNA (500 nM stock) was added to initiate the reaction, total reaction volume of 50 μL/well. […] Gel data were analyzed using ImageJ software. […]

Compound Structure String: O=C(O)C1=CC(=C(c2ccc(O)c(C(=O)O)c2)c2ccc(O)c(C(=O)O)c2)C=CC1=O
Unit Tag: nM
IC50: 700
